Recorded values, source PubChem BioAssay AID743160.

# key: entry, value: IC50
# Tested on: H9c2 cells, DAPI nuclear count (cytotoxicity), overnight
# Protocol Summary: H9c2 cardiomyoblast cytotoxicity by nuclear count, SAR follow-up, cytotoxicity control for triacylglycerol accumulation inhibitor project, cell-based, DAPI fluorescence (AID 743160)
Calls of active or inactive are those of the source. No rule for the calls is given here.

Reference set, count: 2
COCCN1Cc2cccc(C(=O)Nc3cccc(-c4nc5ccc(C(F)(F)F)cc5[nH]4)c3)c2C1=O	> 50 µM (inactive)
COc1cc(NC(=O)c2cc([N+](=O)[O-])ccc2NC(=O)CN2CCN(c3ccccn3)CC2)cc(OC)c1	> 50 µM (inactive)

State measured IC50 of the molecule CCOCCN1Cc2cccc(C(=O)Nc3cccc(-c4nc5ccccc5[nH]4)c3)c2C1=O with H9c2 cells, DAPI nuclear count (cytotoxicity), overnight. > 50 µM (inactive)

Report IC50 on H9c2 cells, DAPI nuclear count (cytotoxicity), overnight for this entry: O=C(Nc1cccc(-c2nc3ccccc3[nH]2)c1)c1cccc2c1C(=O)N(CC1CC1)C2 > 50 µM (inactive)

Fill in: IC50 on H9c2 cells, DAPI nuclear count (cytotoxicity), overnight, entry CCC(C)(C)NC(=O)C(c1ccc(C)cc1)N(Cc1ccco1)C(=O)CCC(=O)Nc1nccs1 (configuration not stated) > 50 µM (inactive)

Specify the recorded IC50 for CN(C)CCCn1c(SCC(=O)Nc2nc(-c3cccc(Br)c3)cs2)nc2ccccc2c1=O , system: H9c2 cells, DAPI nuclear count (cytotoxicity), overnight. 27.1 µM (inactive)

Please look at COCCN1Cc2cccc(C(=O)Nc3cccc(-c4nc5ccc(F)cc5[nH]4)c3)c2C1=O and tell me its recorded IC50 on H9c2 cells, DAPI nuclear count (cytotoxicity), overnight. > 50 µM (inactive)
